target: IRAK1 (Homo sapiens); construct: purchased KinomeScan, a division of Ambit Biosciences; test: KinomeScan competition binding assay; conditions: 10 μM compound
Sequence (P51617 whole entry): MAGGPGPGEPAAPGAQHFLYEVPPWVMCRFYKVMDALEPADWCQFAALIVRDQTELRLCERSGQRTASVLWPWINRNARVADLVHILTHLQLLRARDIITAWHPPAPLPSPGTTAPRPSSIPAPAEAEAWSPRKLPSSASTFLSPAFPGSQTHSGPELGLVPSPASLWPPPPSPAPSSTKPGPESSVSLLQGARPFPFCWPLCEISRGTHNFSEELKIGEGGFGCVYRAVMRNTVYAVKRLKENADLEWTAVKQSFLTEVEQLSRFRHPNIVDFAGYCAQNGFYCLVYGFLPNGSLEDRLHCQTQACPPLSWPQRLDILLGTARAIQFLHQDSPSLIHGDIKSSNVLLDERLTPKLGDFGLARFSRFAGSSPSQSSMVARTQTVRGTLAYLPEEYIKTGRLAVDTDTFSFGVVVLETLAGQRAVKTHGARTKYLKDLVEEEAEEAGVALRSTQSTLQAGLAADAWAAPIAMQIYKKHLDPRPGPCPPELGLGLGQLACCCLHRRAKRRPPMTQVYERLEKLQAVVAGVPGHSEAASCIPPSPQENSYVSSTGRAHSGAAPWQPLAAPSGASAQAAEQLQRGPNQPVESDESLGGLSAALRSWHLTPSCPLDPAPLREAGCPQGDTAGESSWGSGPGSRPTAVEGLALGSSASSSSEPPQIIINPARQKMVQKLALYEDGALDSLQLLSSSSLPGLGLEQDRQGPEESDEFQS
Measured POC ligand binding, IRAK1, listed per entry for reference.
Record the result as a number with its unit.

CC(C)CNc1ncnc2ccc(C(F)(F)F)cc12 [compound 45] ... 25 POC
N#Cc1ccc2ncnc(NCCc3ccc4ccccc4c3)c2c1 [compound 26] ... 89 POC
N#Cc1ccc2ncnc(NCCc3ccccc3)c2c1 [compound 1] ... 8.2 POC
COc1ccc2ncnc(NCCc3ccccc3)c2c1 [compound 44] ... 64 POC
CCCNc1ncnc2ccc(N3CCOCC3)cc12 [compound 46] ... 81 POC

With those in mind, consider the next compound.
POC ligand binding, IRAK1 reported for this compound N#Cc1ccc2ncnc(NCc3ccc(Cl)cc3)c2c1 [compound 20] : 26 POC
